assay_method_text: NCI Yeast Anticancer Drug Screen. Data for the mlh1 rad18 strain (AID 175)
study_conditions: S. cerevisiae mlh1 rad18 strain growth inhibition; at 50.0 µM
The panel holds about 79,000 compounds, 15% with a hit somewhere; the sample as a whole holds those more often. Activity calls are given as the source filed them. Cut-off read from the data, not from the text of the source: active = growth inhibition above about 70%; inactive = the rest.
Choose one outcome from this list and give only that: true (1) = active, false (0) = inactive

Illustrative cases are given below, each with its answer.
O=C1C=CC2C(=O)c3ccccc3C(=O)C2=C1 (configuration not stated) : false (0)
CCCCCCCCCCCCNC(=O)C[n+]1cccc(C(N)=O)c1 : false (0)
CC(=O)Oc1ccc(C(C)(C)CC(C)(C)C)cc1 : true (1)
C=C1C(=O)OC2CC(C)C3C=CC(=O)C3CC12 (configuration not stated) : true (1)
COC(=O)/C(Br)=C(\Br)c1ccccc1 : false (0)
CC(=O)OC[C@@H](OC(C)=O)[C@H](OC(C)=O)c1cnn(-c2ccccc2)n1 : false (0)
Clc1ccc(CNc2ccc(Cl)c(Cl)c2)cc1 : true (1)
Nc1nccc2c1ncn2C1C=C(CO)C(O)C1O (configuration not stated) : false (0)
O=C(NNc1nc(-c2ccccc2)cs1)C(F)(F)F : true (1)
O=C([O-])c1ccccc1[I+]c1ccc(C2CCCCC2)cc1 : true (1)

How was O=c1cc(/C=C/c2ccccc2)cccc1O classified in this test?
true (1)

Please do the same for NC(=O)CCSC(=S)N1CCOCC1 as well.
false (0)

Please do the same for O=C1/C(=C/c2ccccc2)CCC/C1=C\c1ccc(O)c(CN2CCCCC2)c1 as well.
true (1)

Please do the same for COc1ccc(C2Oc3ccc(Cl)cc3C=C2[N+](=O)[O-])cc1OC (configuration not stated) as well.
true (1)

Please do the same for CCCCCCCCCCCCCCNCCC(=O)O as well.
true (1)

Please do the same for C/C(=N\NC(=S)Nc1ccc([N+](=O)[O-])cc1)c1nc2ncccc2[nH]1 as well.
false (0)

Please do the same for COc1ccc(NC(=O)CSC(N)=O)cc1 as well.
false (0)

###

assay_method_text: NCI Yeast Anticancer Drug Screen. Data for the mlh1 rad18 strain (AID 175)
study_conditions: S. cerevisiae mlh1 rad18 strain growth inhibition; at 5.0 µM (retest, dose inferred, filed as 0.5); hits give high values
Protocol: Growth inhibition of yeast strains with defined genetic alterations is measured as a screen for potential anti-cancer activity. Selected strains with alterations in DNA damage repair or cell cycle control were exposed to compounds and growth inhibition was measured relative to vehicle treated controls. The strain used in this assay is mlh1 rad18
The panel holds about 79,000 compounds, 15% with a hit somewhere; the sample as a whole holds those more often.
reported_property: growth inhibition (%)
Write the number in % without appending the unit.

Record excerpt, results attached:
CSC(=Nc1ccc(Cl)cc1)N1CC=Cc2ccccc21 : 0
COc1cc(CNC(=O)CCCCCCCC/C=C/Br)ccc1O : -16
CC1=CC(O)(c2nc3ccccc3s2)CC(C)(C)C1 (stereo not drawn) : -2
CCOC(=O)C(=NNc1ccccc1)C(=O)OCC : 1

// query growth inhibition value for entry CC(=O)N[C@H]1CCC2[C@@H]3CCC4=CC(=O)NCC[C@]4(C)C3CC[C@@]21C (stereo partly drawn)
-2

Please do the same for Cc1nc2c([N+](=O)[O-])c(N3CCCCC3)c([N+](=O)[O-])cc2[nH]1 as well.
8

Values from PubChem BioAssay (NCI)
